# experimental.system: SHP2-C SH2;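 note: peptide library displayed on the E. coli surface as eCPX fusions, selected cells deep-sequenced, score is each peptide's frequency after selection divided by its frequency in the input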
# assay.name: SH2 binding enrichment of the phosphorylated peptide, bacterial display (enrichment ratio); higher = better substrate or ligand; peptides without Tyr show the background
Param threshold (0.6) applies to SH2 binding enrichment; output Yes when value >= threshold, No when value < threshold.

QUERY: Evaluate LTPVKYLLSAT [GSDMC_Y26] : SH2 binding enrichment at minimum 0.6?
RESULT: Yes

QUERY: Evaluate ENGPFYTSFPP [GDAP2_Y488_YF] : SH2 binding enrichment at minimum 0.6?
RESULT: Yes

QUERY: Evaluate RTTIHYNFMCN [TP53_Y234_C229R_YF] : SH2 binding enrichment at minimum 0.6?
RESULT: Yes

QUERY: Evaluate DSMQSYDLDYP [UNC13B_Y243] : SH2 binding enrichment at minimum 0.6?
RESULT: No

QUERY: Evaluate LSDGPYSNPYE [EPOR_Y485] : SH2 binding enrichment at minimum 0.6?
RESULT: Yes

QUERY: Evaluate LEKISYVFMKR [SSX7_Y48_YF] : SH2 binding enrichment at minimum 0.6?
RESULT: Yes

QUERY: Evaluate GLPQTYCVSGP [DYSF_Y1684] : SH2 binding enrichment at minimum 0.6?
RESULT: No

QUERY: Evaluate KFEDVYVRICL [B3GALNT1_Y269_G271R] : SH2 binding enrichment at minimum 0.6?
RESULT: Yes

Values were extracted from the supplement of paper PMC10065799.
